Test system: SOX2
Assay: Screen of a library of FDA-approved drugs for SOX2 antibody staining in A375 cells treated with PLX4720 and AZD6244
Conditions: Z-test against negative controls (DMSO); single dose 5 uM
reportedEndpoint: z

Exercise: Record lookup: for SOX2, what z belongs to C[C@@H]1O[C@@H](O[C@@H]2C=C3CC[C@@H]4[C@H](CC[C@]5(C)[C@@H](c6ccc(=O)oc6)CC[C@]45O)[C@@]3(C)CC2)[C@H](O)[C@H](O)[C@H]1O ?
Solution: 3.007

Exercise: Record lookup: for SOX2, what z belongs to CCC(=O)OCC(=O)[C@@]1(OC(=O)CC)[C@@H](C)C[C@H]2[C@@H]3CCC4=CC(=O)C=C[C@]4(C)[C@@]3(F)[C@@H](O)C[C@@]21C [BETAMETHASONE 17,21-DIPROPIONATE] ?
Solution: 5.927

Exercise: Record lookup: for SOX2, what z belongs to CCCSc1ccc2nc(NC(=O)OC)[nH]c2c1 ?
Solution: 5.411

----------
System: SOX2
Test: Screen of a library of FDA-approved drugs for SOX2 antibody staining in A375 cells treated with PLX4720 and AZD6244
Details: A375 cells, 5 uM test drug with 1 uM PLX4720 and 0.5 uM AZD6244, 24 h; normalized and geometry-corrected (loess) signal
# cor. loess annotations
Enter the number alone.

The following compounds have reported results that may help.
COc1ccc2cc1Oc1ccc(cc1)C[C@H]1c3cc(c(OC)cc3CCN1C)Oc1c(OC)c(OC)cc3c1[C@H](C2)N(C)CC3 | 1.018
CCN1CCN(Cc2ccc(Nc3ncc(F)c(-c4cc(F)c5nc(C)n(C(C)C)c5c4)n3)nc2)CC1 | 1.234
Cc1cc(C#N)cc(C)c1Oc1nc(Nc2ccc(C#N)cc2)nc(N)c1Br | 0.646
C[C@H]1[C@@H](O)O[C@@H]2O[C@@]3(C)CC[C@H]4[C@H](C)CC[C@@H]1[C@@]24OO3 | 0.4829
S=C(NCc1ccc2c(c1)OCO2)N1CCN(c2ncnc3c2oc2ccccc23)CC1 | 0.5191

Exercise: Any idea what its cor. loess is? The compound is CC(=O)OCC(=O)[C@@]1(O)[C@H](C)C[C@H]2[C@@H]3CCC4=CC(=O)C=C[C@]4(C)[C@@]3(F)[C@@H](O)C[C@@]21C [DEXAMETHASONE ACETATE]
Solution: 0.4615

Exercise: Any idea what its cor. loess is? The compound is CC(=O)Nc1c(I)cc(I)c(C(=O)O)c1I
Solution: 0.3537

----------
# cor. loess annotations
System: SOX2
Assay: Screen of a library of FDA-approved drugs for SOX2 antibody staining in A375 cells treated with PLX4720 and AZD6244
Details: A375 cells, 5 uM test drug with 1 uM PLX4720 and 0.5 uM AZD6244, 24 h; normalized and geometry-corrected (loess) signal
Enter the number alone.

The following compounds have reported results that may help.
Cc1cc2nc3ccc(N(C)C)cc3[s+]c2cc1N [TOLONIUM CHLORIDE] | 0.7082
CCC(=O)O[C@]1(C(=O)SCF)[C@H](C)C[C@H]2[C@@H]3C[C@H](F)C4=CC(=O)C=C[C@]4(C)[C@@]3(F)[C@@H](O)C[C@@]21C [FLUTICASONE PROPIONATE] | 0.6875
COC(=O)c1ccc2c(c1)NC(=O)/C2=C(\Nc1ccc(N(C)C(=O)CN2CCN(C)CC2)cc1)c1ccccc1 | 0.5485
C[C@@H]1C[C@H]2[C@@H]3CCC4=CC(=O)C=C[C@]4(C)[C@@]3(F)[C@@H](O)C[C@]2(C)[C@@]1(O)C(=O)COP(=O)(O)O [DEXAMETHASONE SODIUM PHOSPHATE] | 0.5299
CCCC(=O)O[C@]1(C(=O)COC(C)=O)CC[C@H]2[C@@H]3C[C@H](F)C4=CC(=O)C=C[C@]4(C)[C@@]3(F)[C@@H](O)C[C@@]21C [Difluprednate] | 0.4529

Consider now this further compound.
Exercise: Any idea what its cor. loess is? The compound is CC(C)COc1ccc(CNC(=O)N(Cc2ccc(F)cc2)C2CCN(C)CC2)cc1
Solution: 0.7376

----------
# cor. loess annotations
Test system: SOX2
Assay: Screen of a library of FDA-approved drugs for SOX2 antibody staining in A375 cells treated with PLX4720 and AZD6244
Conditions: A375 cells, 5 uM test drug with 1 uM PLX4720 and 0.5 uM AZD6244, 24 h; normalized and geometry-corrected (loess) signal
Enter the number alone.

The following molecules have reported results that may help.
CC(=O)OCC(=O)[C@@]1(O)CC[C@H]2[C@@H]3CCC4=CC(=O)CC[C@]4(C)[C@@]3(F)[C@@H](O)C[C@@]21C [FLUDROCORTISONE ACETATE] | 0.4578
OC1(c2ccc(Cl)c(C(F)(F)F)c2)CCN(CCCC(c2ccc(F)cc2)c2ccc(F)cc2)CC1 | 2.248
Cc1cnc(Nc2ccc(OCCN3CCCC3)cc2)nc1Nc1cccc(S(=O)(=O)NC(C)(C)C)c1 [TG101348 (SAR302503)] | 1.471

Consider now this further molecule.
Exercise: Any idea what its cor. loess is? The molecule is O=C(Oc1cccc2cccnc12)c1ccccc1
Solution: 0.5846

----------
System: SOX2
Experiment: Screen of a library of FDA-approved drugs for SOX2 antibody staining in A375 cells treated with PLX4720 and AZD6244
Details: A375 cells, 5 uM test drug with 1 uM PLX4720 and 0.5 uM AZD6244, 24 h; normalized and geometry-corrected (loess) signal
Counter-ions that a name gives are not always drawn.
# cor. loess annotations
Enter the number alone.

Exercise: Any idea what its cor. loess is? The compound is Nc1cc(F)ccc1NC(=O)c1ccc(CNC(=O)/C=C/c2cccnc2)cc1 [Chidamide]
Solution: 1.067

Exercise: Any idea what its cor. loess is? The compound is CCCCc1oc2ccc(NS(C)(=O)=O)cc2c1C(=O)c1ccc(OCCCN(CCCC)CCCC)cc1 [DRONEDARONE HYDROCHLORIDE]
Solution: 3.823

Exercise: Any idea what its cor. loess is? The compound is CCN(CC)CCNC(=O)c1c(C)[nH]c(/C=C2\C(=O)Nc3ccc(F)cc32)c1C
Solution: 0.5385

Exercise: Any idea what its cor. loess is? The compound is C1CCC(C(CC2CCCCN2)C2CCCCC2)CC1 (stereo not drawn) [PERHEXILINE MALEATE]
Solution: 0.3464

Exercise: Any idea what its cor. loess is? The compound is CCNC1(C(N)=O)CCN(c2ncnc3c2nc(-c2ccccc2Cl)n3-c2ccc(Cl)cc2)CC1 [Otenabant (CP-945598) HCl]
Solution: 1.069

Exercise: Any idea what its cor. loess is? The compound is O=C(Nc1ccc([N+](=O)[O-])cc1Cl)c1cc(Cl)ccc1O [NICLOSAMIDE]
Solution: 0.7224

Exercise: Any idea what its cor. loess is? The compound is CO[C@H]1C[C@@H]2CC[C@@H](C)[C@@](O)(O2)C(=O)C(=O)N2CCCC[C@H]2C(=O)O[C@H]([C@H](C)C[C@@H]2CC[C@@H](O)[C@H](OC)C2)CC(=O)[C@H](C)/C=C(\C)[C@@H](O)[C@@H](OC)C(=O)[C@H](C)C[C@H](C)/C=C/C=C/C=C/1C
Solution: 0.3171

Exercise: Any idea what its cor. loess is? The compound is CC1(C)O[C@@H]2C[C@H]3[C@@H]4CCC5=CC(=O)CC[C@]5(C)[C@@]4(F)[C@@H](O)C[C@]3(C)[C@]2(C(=O)CCl)O1 [HALCINONIDE]
Solution: 0.2632

Exercise: Any idea what its cor. loess is? The compound is CCCCC(CC)CN1CN(CC(CC)CCCC)CC(C)(N)C1 (stereo not drawn)
Solution: 0.3155

----------
# z annotations
Tested on: SOX2
Experiment: Screen of a library of FDA-approved drugs for SOX2 antibody staining in A375 cells treated with PLX4720 and AZD6244
Details: Z-test against negative controls (DMSO); single dose 5 uM
Enter the number alone.

CC(=O)N[C@@H](CC(C)C)C(=O)O | 6.41
CC[C@@H](C(=O)[C@@H](C)[C@@H](O)[C@H](C)[C@@H]1O[C@@H]([C@@H](CC)C(=O)O)CC[C@@H]1C)[C@H]1O[C@]2(C=C[C@@H](O)[C@]3(CC[C@@](C)([C@H]4CC[C@](O)(CC)[C@H](C)O4)O3)O2)[C@H](C)C[C@@H]1C [SALINOMYCIN, SODIUM] | 8.891

Consider now this further molecule.
Exercise: Any idea what its z is? The molecule is Cc1cc(Nc2ncc(Cl)c(Nc3ccccc3S(=O)(=O)C(C)C)n2)c(OC(C)C)cc1C1CCNCC1
Solution: 23.92
